Reference for the values: ChEMBL document CHEMBL5108065

- EXPERIMENTAL SYSTEM: Voltage-dependent L-type calcium channel subunit alpha-1C (Homo sapiens)
- Sequence (Q13936 whole entry): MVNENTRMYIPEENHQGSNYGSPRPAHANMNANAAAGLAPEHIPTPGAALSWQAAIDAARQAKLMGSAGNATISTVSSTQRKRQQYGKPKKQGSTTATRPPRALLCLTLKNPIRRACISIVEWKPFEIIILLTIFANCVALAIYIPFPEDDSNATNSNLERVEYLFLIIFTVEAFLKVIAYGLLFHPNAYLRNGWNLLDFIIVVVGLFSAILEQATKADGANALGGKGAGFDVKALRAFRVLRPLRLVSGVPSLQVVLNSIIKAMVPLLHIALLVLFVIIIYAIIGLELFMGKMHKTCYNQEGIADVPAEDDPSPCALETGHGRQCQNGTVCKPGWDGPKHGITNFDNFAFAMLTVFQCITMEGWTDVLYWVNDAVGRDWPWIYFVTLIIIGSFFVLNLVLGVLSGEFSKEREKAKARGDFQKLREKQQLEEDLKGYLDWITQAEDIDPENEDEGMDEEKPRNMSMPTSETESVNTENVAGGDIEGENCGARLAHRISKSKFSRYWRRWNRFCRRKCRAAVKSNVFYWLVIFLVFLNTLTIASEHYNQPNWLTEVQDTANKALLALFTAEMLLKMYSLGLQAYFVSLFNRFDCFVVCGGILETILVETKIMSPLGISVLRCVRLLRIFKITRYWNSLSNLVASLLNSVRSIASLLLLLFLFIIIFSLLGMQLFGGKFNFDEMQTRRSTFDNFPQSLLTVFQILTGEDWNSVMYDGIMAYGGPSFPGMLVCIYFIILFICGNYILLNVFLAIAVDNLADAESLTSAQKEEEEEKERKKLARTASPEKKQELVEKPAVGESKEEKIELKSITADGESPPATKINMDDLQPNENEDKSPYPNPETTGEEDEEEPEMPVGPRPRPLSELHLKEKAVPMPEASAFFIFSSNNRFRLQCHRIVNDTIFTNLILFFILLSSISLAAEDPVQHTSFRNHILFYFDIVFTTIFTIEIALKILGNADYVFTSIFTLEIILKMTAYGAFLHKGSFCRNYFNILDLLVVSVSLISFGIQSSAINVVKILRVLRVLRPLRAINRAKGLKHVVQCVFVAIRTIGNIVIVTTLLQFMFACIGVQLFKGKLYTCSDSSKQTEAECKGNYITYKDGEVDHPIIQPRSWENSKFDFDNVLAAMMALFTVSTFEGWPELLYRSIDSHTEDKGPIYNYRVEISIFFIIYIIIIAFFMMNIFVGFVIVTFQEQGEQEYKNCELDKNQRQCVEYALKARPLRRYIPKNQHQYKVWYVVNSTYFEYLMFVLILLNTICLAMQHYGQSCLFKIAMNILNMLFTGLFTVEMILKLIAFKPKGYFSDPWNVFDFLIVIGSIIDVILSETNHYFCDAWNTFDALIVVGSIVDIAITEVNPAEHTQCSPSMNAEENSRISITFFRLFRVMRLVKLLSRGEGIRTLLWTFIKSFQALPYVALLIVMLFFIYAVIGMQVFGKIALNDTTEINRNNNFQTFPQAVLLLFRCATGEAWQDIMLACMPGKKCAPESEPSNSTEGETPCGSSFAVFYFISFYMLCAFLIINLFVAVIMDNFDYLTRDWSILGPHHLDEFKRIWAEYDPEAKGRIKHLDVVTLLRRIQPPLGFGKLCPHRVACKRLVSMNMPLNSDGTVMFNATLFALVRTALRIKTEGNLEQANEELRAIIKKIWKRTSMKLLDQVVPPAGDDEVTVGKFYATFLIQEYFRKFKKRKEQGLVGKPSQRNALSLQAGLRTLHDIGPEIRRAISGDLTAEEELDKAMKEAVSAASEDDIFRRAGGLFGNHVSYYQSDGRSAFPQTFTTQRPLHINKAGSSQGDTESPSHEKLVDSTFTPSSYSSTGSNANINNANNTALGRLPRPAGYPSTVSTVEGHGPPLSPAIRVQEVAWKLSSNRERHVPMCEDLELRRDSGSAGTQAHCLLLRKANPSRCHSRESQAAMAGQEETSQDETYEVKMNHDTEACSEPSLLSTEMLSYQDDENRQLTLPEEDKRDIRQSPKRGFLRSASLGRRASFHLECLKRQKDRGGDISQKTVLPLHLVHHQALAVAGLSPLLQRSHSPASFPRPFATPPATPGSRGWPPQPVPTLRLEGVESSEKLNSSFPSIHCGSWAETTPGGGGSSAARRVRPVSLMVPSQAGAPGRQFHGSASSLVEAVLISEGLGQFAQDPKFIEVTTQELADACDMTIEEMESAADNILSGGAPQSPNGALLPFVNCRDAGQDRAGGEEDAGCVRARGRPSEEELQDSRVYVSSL
- PROTOCOL DETAILS: Inhibition of Cav1.2 (unknown origin) cardiac ion channel by patch clamp assay
EXPERIMENTAL ENDPOINT: IC50 (µM)
Express the result in µM but write the number alone.

IC50 of `C[C@H]1C[C@@H](N2C(=N)N[C@](C)(c3cccc(Nc4ccc(C5CC5)nc4)c3Cl)CC2=O)CCO1` , assay on Voltage-dependent L-type calcium channel subunit alpha-1C (Homo sapiens), is 27

----------
Below: a set of entries, each annotated with reported Tmax.
- PROTOCOL DETAILS: in vivo
- APPLIED CONDITIONS: Sprague-Dawley, rat, whole blood, po, 10 mg/kg
Express the result in h but write the number alone.

# CPD SMILES, UNITS OF MEASURE, OBSERVED
records = [
    ("C[C@H]1C[C@@H](N2C(=N)N[C@](C)(c3cccc(NC(=O)c4cccc(C#N)c4)c3Cl)CC2=O)CCO1", "h", 3),
]

Measured Tmax, `C[C@H]1C[C@@H](N2C(=N)N[C@](C)(c3cccc(Nc4ccc(C5CC5)nc4)c3Cl)CC2=O)CCO1` : 8
